molecular target: UniProt:P10721; experiment: PathScan phospho c-kit (Tyr719) sandwich ELISA in SCF-stimulated M-07e cells (pKIT assay); format: cell-based; conditions: ELISA assay (values not marked *)
Sequence (P10721 26-976): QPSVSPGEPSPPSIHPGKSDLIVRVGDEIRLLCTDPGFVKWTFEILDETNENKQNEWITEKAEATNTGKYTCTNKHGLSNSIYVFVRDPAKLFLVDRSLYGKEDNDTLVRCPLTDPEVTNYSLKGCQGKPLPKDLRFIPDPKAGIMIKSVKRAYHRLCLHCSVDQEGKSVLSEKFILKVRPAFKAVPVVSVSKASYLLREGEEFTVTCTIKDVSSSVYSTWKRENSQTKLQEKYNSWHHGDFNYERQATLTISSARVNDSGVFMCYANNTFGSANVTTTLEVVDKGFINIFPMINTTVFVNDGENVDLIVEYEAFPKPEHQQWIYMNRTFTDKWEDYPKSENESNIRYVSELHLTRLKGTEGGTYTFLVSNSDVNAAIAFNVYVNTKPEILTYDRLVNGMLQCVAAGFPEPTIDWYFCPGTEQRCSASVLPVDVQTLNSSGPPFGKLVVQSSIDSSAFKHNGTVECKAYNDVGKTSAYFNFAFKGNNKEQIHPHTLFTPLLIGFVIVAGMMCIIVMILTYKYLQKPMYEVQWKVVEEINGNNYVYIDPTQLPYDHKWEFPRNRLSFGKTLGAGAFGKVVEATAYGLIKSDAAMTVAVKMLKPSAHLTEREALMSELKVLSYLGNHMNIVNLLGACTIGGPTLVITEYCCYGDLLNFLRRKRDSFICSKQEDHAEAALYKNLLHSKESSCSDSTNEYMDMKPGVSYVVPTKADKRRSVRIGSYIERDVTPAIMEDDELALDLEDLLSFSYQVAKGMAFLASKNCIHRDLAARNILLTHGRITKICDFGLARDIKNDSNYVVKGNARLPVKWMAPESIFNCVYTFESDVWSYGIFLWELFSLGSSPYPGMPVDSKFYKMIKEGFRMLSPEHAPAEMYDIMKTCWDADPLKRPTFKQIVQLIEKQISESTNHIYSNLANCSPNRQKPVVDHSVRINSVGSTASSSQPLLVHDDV
pIC50: −log10 of the molar value.
Attribute Measured: pIC50

Completed entries (count: 2):
Molecule	Attribute Measured	Readout Value
Cc1cc(C)c(-c2nnn(CCC(C)(O)C(F)(F)F)n2)cc1NC(=O)c1cnn2ccccc12 (centres unmarked) [Example 36]	pIC50	8.07
COC(=O)N1CC(n2nnc(-c3ccc(C)c(NC(=O)c4cnn5ccc(N6CCC(F)(F)C6)cc45)c3)n2)C1 [Example 67]	pIC50	7.64

a. Cc1ccc(-c2nnn([C@H]3C[C@H](CO)C3)n2)cc1NC(=O)c1cnn2ccccc12 [Example 200]
b. CC(C)(O)Cn1cc(-c2ccn3ncc(C(=O)Nc4cc(-n5nnc(C6CC6)n5)ccc4F)c3c2)cn1 [Example 217]
c. COCCNc1ccn2ncc(C(=O)Nc3cc(-c4nnn([C@H]5C[C@@H](C(F)(F)F)C5)n4)ccc3C)c2c1 [Example 119]
Query: Rank items: key pIC50, increasing. List the labels according to the requested ordering.
Reply: a, b, c
(a: 7.77, b: 8.09, c: 8.64)

Reference for the values: patent US20240262826A1
